System: primary rat mixed cortical cells
Assay: In vitro myelination assay (MBP positive myelin strands, fold myelin pixels above background)
Type: cell-based
Details: Rattus norvegicus, 10.0 μM compound; read-out: Fold myelin pixels above background relative to baseline of no added compound
readoutType: fold induction at 10 µM

Here is how some compounds turned out for fold induction at 10 µM.
Cc1cc(Nc2ncn(-c3ccc(F)c(F)c3)n2)cc(N[C@H]2C[C@@H](N3CCOCC3)C2)c1 (single isomer, unassigned) [Compound 826]; ≤ 1
Cc1cc(Nc2ncn(-c3cc(F)cc(F)c3)n2)cc(OCCn2cccn2)c1 [Compound 832]; 10 to 100
[2H]C1([2H])N(c2cc(Nc3ncn(-c4cc(F)cc(F)c4)n3)cc(C(F)F)c2)C([2H])([2H])C([2H])([2H])C([2H])([2H])C1([2H])[2H] [Compound 876]; 10 to 100
CCOCCOC1CCN(c2cc(C)cc(Nc3ncn(-c4cc(F)cc(F)c4)n3)c2)CC1 [Compound 962]; 1 to 10
CCC(CO)N1CCN(c2cc(C)cc(Nc3ncn(-c4cc(F)cc(F)c4)n3)c2)CC1 (stereo not drawn) [Compound 904]; ≤ 1
CCOCC(O)CN1CCN(c2cc(C)cc(Nc3ncn(-c4cc(F)cc(F)c4)n3)c2)CC1 (stereo not drawn) [Compound 900]; ≤ 1
Cc1cc(Nc2ncn(-c3cc(F)cc(F)c3)n2)cc(N2CCN(CCN(C)C)CC2)c1 [Compound 809]; ≤ 1
Cc1cc(NCC2CN(C3CC3)CCO2)cc(Nc2ncn(-c3cc(F)cc(F)c3)n2)c1 (stereo not drawn) [Compound 968]; 1 to 10
Cc1cc(Nc2ncn(-c3cc(F)cc(F)c3)n2)cc(N2CC(C3CCOC3)C2)c1 (stereo not drawn) [Compound 890]; 10 to 100
Cc1cc(Nc2ncn(-c3cc(F)cc(F)c3)n2)cc(N2CCC3(CCOC3)CC2)c1 [Compound 814]; 1 to 10

In: Give the reported value of fold induction at 10 µM for this record: Cc1cc(Nc2ncn(-c3cc(F)cc(F)c3)n2)cc(N2CCC(CCO)CC2)c1 [Compound 874]
Out: ≤ 1

In: Hello, please tell me recorded fold induction at 10 µM for this one: Cc1cc(Nc2ncn(-c3cc(F)cc(F)c3)n2)cc(NC2CCN(C3CCOC3)CC2)c1 (stereo not drawn) [Compound 1064]
Out: ≤ 1

In: Kindly indicate its recorded fold induction at 10 µM. Item: Cc1cc(Nc2ncn(-c3cc(F)cc(F)c3)n2)cc(N2CCOC(CO)C2)c1 (stereo not drawn) [Compound 1073]
Out: ≤ 1

In: Give the value of fold induction at 10 µM reported for the following: [2H]C1([2H])N(c2cc(C)cc(Nc3ncn(-c4cc(F)cc(F)c4)n3)c2)C([2H])([2H])C([2H])([2H])N(C2CCOC2)C1([2H])[2H] (stereo not drawn) [Compound 1042]
Out: ≤ 1

In: // Input: Cc1cc(Nc2ncn(-c3cc(F)cc(F)c3)n2)cc(N2CCN3CCC2C3)c1 (stereo not drawn) [Compound 889] . Output its fold induction at 10 µM only.
Out: ≤ 1
